Recorded FITC- (%) by entry
- study target: T1, HER2 on the surface of HER2+ cancer cells (BT474, SKOV-3) (human, UniProt P04626 23-1255)
- T1 construct: whole, on cells; also called human epidermal growth factor receptor 2
- method notes: flow cytometry on SKOV-3 cells (HER2+), 100 nM binding sites
Report the value in % with no unit label.

Would you please look over these solved cases?
E5 anti-HER2 VHH (VHH, also called E5 clone) VHH: QVQLQESGGGLVQAGGSLRLDCAASGRTLSSYVVGWFRQAPGKEREVVAAIGWSRTSTFYTDSVKGRFTISRDNTENTVYLQMNSLKPGDTAVYYCAADSSPRRWDRESDFGSWGQGTQVTVSS: 6.45
F4 anti-HER2 VHH (VHH) VHH: QVQLQESGGGLVQAGGSLKLSCAASGRTLSAYVVGWFRQAPGKERESVAAIGWSSRSPYYPDSVKGRFTISEDNTKNTVYLQMNSLKPDDTAVYYCAADSYPRRWDRESDFGSWGQGTQVTVSS: 6.51

// next item, FITC- (%) requested
Which FITC- (%) reading was recorded for the binder E9 anti-HER2 VHH (VHH) VHH: QVQLQESGGGSVQAGGSLKLSCAASGRTLSAYVVGWFRQAPGRERESVAAIGWSTHSVYYADSVKGRFTISRDNTENTVYLQMNSLKPDDTAVYYCAADSSPRRWDRESDFGSWGQGTQVTVSS ?
6.76
